Values were extracted from ChEMBL document CHEMBL3885861.

Organism: Rattus norvegicus
procedureText: Open TG-GATES - Regimen: Single
Type: toxicity, organism-based, Sprague-Dawley
Design: regimen Single, gender Male, age 6 weeks
reportedConditions: in vivo, po, 0 mg/kg, 6 h, tissue Blood, route gavage, dose level Control
A collection of compounds and their measured Neu
readout: Neu (%)

compound=NC(=O)N/N=C/c1ccc([N+](=O)[O-])o1 observedmeasurement=21.8
compound="CSc1ccc2c(c1)N(CCC1CCCCN1C)c1ccccc1S2 (configuration not stated)" observedmeasurement=17.2
compound=CC(=O)Oc1ccccc1C(=O)O observedmeasurement=18.4
compound="CCc1cc(C(N)=S)ccn1 [ETHIONAMIDE]" observedmeasurement=11.2
compound=COc1ccc(Cc2nccc3cc(OC)c(OC)cc23)cc1OC observedmeasurement=13.4
compound="NC(=O)N1c2ccccc2C=Cc2ccccc21 [CARBAMAZEPINE]" observedmeasurement=17.6
compound=Cn1c(=O)c2[nH]cnc2n(C)c1=O.O observedmeasurement=13.2
compound=O=C(O)c1cn(C2CC2)c2cc(N3CCNCC3)c(F)cc2c1=O observedmeasurement=15.6
compound=O=C(O)c1cc(/N=N/c2ccc(S(=O)(=O)Nc3ccccn3)cc2)ccc1O observedmeasurement=19.2
compound=C[C@H](CS)C(=O)N1CCC[C@H]1C(=O)O observedmeasurement=16.2
compound=CN(C)CCC=C1c2ccccc2CCc2ccccc21 observedmeasurement=23.2
compound=Clc1ccccc1CN1CCc2sccc2C1 observedmeasurement=21.4
